- TARGET ENTITY: human sst5 (Homo sapiens, UniProt P35346)
- Sequence (P35346 whole entry): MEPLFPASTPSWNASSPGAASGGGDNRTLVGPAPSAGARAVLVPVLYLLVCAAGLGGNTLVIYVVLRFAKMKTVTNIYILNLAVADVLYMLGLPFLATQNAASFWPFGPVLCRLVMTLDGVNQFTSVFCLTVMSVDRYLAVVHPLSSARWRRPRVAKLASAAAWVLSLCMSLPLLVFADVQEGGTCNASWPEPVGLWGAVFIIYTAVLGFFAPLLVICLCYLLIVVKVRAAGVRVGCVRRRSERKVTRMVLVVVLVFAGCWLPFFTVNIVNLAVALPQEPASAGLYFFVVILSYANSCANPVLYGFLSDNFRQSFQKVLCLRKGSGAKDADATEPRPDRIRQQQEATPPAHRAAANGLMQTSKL
Bridge positions count the residues as written; N and C are the ends. Square brackets hold non-standard residues; d marks the D form. Peptide text beside a SMILES is read from it. * marks the point of attachment. DOTA = O=C(O)CN1CCN(CC(=O)O)CCN(CC(=O)*)CCN(CC(=O)O)CC1; dDab = NCC[C@@H](N)C(=O)O; GABA = NCCCC(=O)O
IC50 values, listed per item
Give the number; nM is assumed, so skip it.

C[C@@H](O)[C@@H]1NC(=O)[C@H](CCCCN)NC(=O)[C@@H](Cc2c[nH]c3ccccc23)NC(=O)[C@H](Cc2ccc(O)cc2)NC(=O)[C@H](Cc2ccccc2)NC(=O)[C@H](CCCNC(=N)N)NC(=O)[C@H](N)CCNC(=O)[C@H](Cc2ccccc2)NC1=O [A with X4 is Tyr] (H-[dDab]RFY[dW]KTF; lactam 1-C) : 0.8
C[C@@H](O)[C@@H]1NC(=O)[C@H](CCCCN)NC(=O)[C@@H](Cc2c[nH]c3ccccc23)NC(=O)[C@H](Cc2ccc(O)cc2)NC(=O)[C@H](Cc2ccccc2)NC(=O)[C@H](CCCNC(=N)N)NC(=O)CCCNC(=O)[C@H](Cc2ccccc2)NC1=O [A with X4 is Tyr and X1 is GABA] (cyclo(F[GABA]RFY[dW]KT); ring closure inferred) : 0.57
C[C@@H](O)[C@@H]1NC(=O)[C@H](CCCCN)NC(=O)[C@@H](Cc2c[nH]c3ccccc23)NC(=O)[C@H](Cc2ccccc2)NC(=O)[C@H](Cc2ccccc2)NC(=O)[C@H](CC(N)=O)NC(=O)CCCNC(=O)[C@H](Cc2ccccc2)NC1=O [minisomatostatin, reference compound] (cyclo(FF[dW]KTF[GABA]N)) : 6.8

Proceeding to the next molecule to report its IC50.
Lab entry: human sst5 (Homo sapiens, UniProt P35346) assay, molecule C[C@@H](O)[C@@H]1NC(=O)[C@H](CCCCN)NC(=O)[C@@H](Cc2c[nH]c3ccccc23)NC(=O)[C@H](Cc2ccccc2)NC(=O)[C@H](Cc2ccccc2)NC(=O)[C@H](CCCNC(=N)N)NC(=O)[C@H](NC(=O)CN2CCN(CC(=O)O)CCN(CC(=O)O)CCN(CC(=O)O)CC2)CCNC(=O)[C@H](Cc2ccccc2)NC1=O [A, Z = DOTA] ({DOTA}-[dDab]RFF[dW]KTF; lactam 1-C) , IC50 = 0.8

Origin of values: patent US7541018B2
